- system name: UniProtKB O15151
- Sequence (O15151 1-125): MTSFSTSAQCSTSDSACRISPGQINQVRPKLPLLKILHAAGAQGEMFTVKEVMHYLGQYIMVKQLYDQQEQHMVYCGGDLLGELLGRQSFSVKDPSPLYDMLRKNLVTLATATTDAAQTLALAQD
- protocol notes: Competitive fluorescence polarization assay for MDMX
- Assay type: binding
- assay context: competitive FP assay, read-out: Ki (MDMX)
pKi: −log10 of the molar value. Where a SMILES comes first, the peptide text is derived from it. Bridges are numbered along the chain shown (N, C = ends). [ ]: non-standard residue; d: D form. R8 = C=CCCCCCC[C@@](C)(N)C(=O)O; Cba = N[C@@H](CC1CCC1)C(=O)O; S5 = C=CCCC[C@](C)(N)C(=O)O; Nle = CCCC[C@H](N)C(=O)O; Ac3c = NC1(C(=O)O)CC1
Parameter: pKi. Scope: all listed entries.
readout kind: pKi

{"compound": "CC(=O)N[C@@H](CC(C)C)C(=O)N[C@H](C(=O)N[C@@H](Cc1ccccc1)C(=O)N[C@]1(C)CCCCCCC=CCCC[C@@](C)(C(=O)N[C@@H](CO)C(=O)N[C@H](C(=O)NCC(N)=O)C(C)C)NC(=O)[C@H](CC(C)C)NC(=O)[C@H](CCC(N)=O)NC(=O)[C@H](C)NC(=O)[C@H](Cc2c[nH]c3ccccc23)NC(=O)[C@H](Cc2ccc(O)cc2)NC(=O)[C@H](C(C)C)NC1=O)[C@@H](C)O (single isomer, unassigned)", "assay result": "7.00 to 8.00"}
{"compound": "CCCC[C@H](NC(=O)[C@H](C)NC(=O)[C@H](C)NC(=O)[C@]1(C)CCCC=CCCCCCC[C@@](C)(NC(=O)[C@H](Cc2ccccc2)NC(=O)[C@H](C)NC(=O)[C@H](C)NC(=O)[C@H](C)NC(=O)[C@H](C)NC(C)=O)C(=O)N[C@@H](CCC(=O)O)C(=O)N[C@@H](Cc2ccc(O)cc2)C(=O)N[C@@H](Cc2c[nH]c3ccccc23)C(=O)N[C@@H](C)C(=O)N[C@@H](CCC(N)=O)C(=O)N[C@@H](CC(C)C)C(=O)N1)C(=O)N[C@@H](C)C(N)=O [compound 373] (Ac-AAAAF[R8]EYWAQL[S5]AA[Nle]A-NH2; staple 6-13)", "assay result": "7.00 to 8.00"}
{"compound": "CCCC[C@H](NC(=O)[C@H](C)NC(=O)[C@H](C)NC(=O)[C@]1(C)CCCC=CCCCCCC[C@@](C)(NC(=O)[C@H](Cc2ccccc2)NC(C)=O)C(=O)N[C@@H](C)C(=O)N[C@@H](Cc2ccc(O)cc2)C(=O)N[C@@H](Cc2c[nH]c3ccccc23)C(=O)N[C@@H](CCC(=O)O)C(=O)NC2(CC2)C(=O)N[C@@H](CC(C)C)C(=O)N1)C(N)=O [compound 14] (Ac-F[R8]AYWE[Ac3c]L[S5]AA[Nle]-NH2; staple 2-9)", "assay result": "> 8.00"}
{"compound": "CC(=O)N[C@@H](CC(C)C)C(=O)N[C@H](C(=O)N[C@@H](Cc1ccccc1)C(=O)N[C@]1(C)CCCCCCC=CCCC[C@@](C)(C(=O)N[C@@H](C)C(=O)N[C@@H](C)C(=O)N[C@@H](C)C(=O)N[C@@H](C)C(=O)N[C@@H](C)C(=O)N[C@H](C)C(N)=O)NC(=O)[C@H](CC(C)C)NC(=O)[C@H](CC(C)C)NC(=O)[C@H](C)NC(=O)[C@H](Cc2c[nH]c3ccccc23)NC(=O)[C@H](Cc2ccc(O)cc2)NC(=O)[C@H](CCC(=O)O)NC1=O)[C@@H](C)O [compound 608] (Ac-LTF[R8]EYWALL[S5]AAAAA[dA]-NH2; staple 4-11)", "assay result": "7.00 to 8.00"}
{"compound": "CCCC[C@H](NC(=O)[C@H](C)NC(=O)[C@H](C)NC(=O)[C@]1(C)CCC/C=C/CCCCCC[C@@](C)(NC(=O)[C@H](Cc2ccccc2)NC(=O)[C@@H](NC(=O)[C@H](CC(C)C)NC(C)=O)[C@@H](C)O)C(=O)N[C@@H](C)C(=O)N[C@@H](Cc2ccc(O)cc2)C(=O)N[C@@H](Cc2c[nH]c3ccccc23)C(=O)N[C@@H](C)C(=O)N[C@@H](CCC(N)=O)C(=O)N[C@@H](CC(C)C)C(=O)N1)C(=O)N[C@@H](C)C(N)=O", "assay result": "7.00 to 8.00"}
{"compound": "CC(=O)N[C@@H](CC(C)C)C(=O)N[C@H](C(=O)N[C@@H](Cc1ccccc1)C(=O)N[C@]1(C)CCCCCCC=CCCC[C@@](C)(C(=O)N[C@@H](CO)C(=O)N[C@@H](C)C(=O)N[C@@H](C)C(N)=O)NC(=O)[C@H](CC2CCC2)NC(=O)[C@H](CCC(N)=O)NC(=O)[C@H](C)NC(=O)[C@H](Cc2c[nH]c3ccccc23)NC(=O)[C@H](Cc2ccc(O)cc2)NC(=O)[C@H](Cc2c[nH]cn2)NC1=O)[C@@H](C)O (single isomer, unassigned)", "assay result": "> 8.00"}
{"compound": "CC(=O)N[C@@H](CC(C)C)C(=O)N[C@H](C(=O)N[C@@H](Cc1ccccc1)C(=O)N[C@]1(C)CCCCCCC=CCCC[C@@](C)(C(=O)N[C@@H](CO)C(=O)N[C@@H](CC(C)C)C(=O)N[C@@H](C)C(N)=O)NC(=O)[C@H](CC(C)C)NC(=O)[C@H](CCC(N)=O)NC(=O)[C@H](C)NC(=O)[C@H](Cc2c[nH]c3ccccc23)NC(=O)[C@H](Cc2ccc(O)cc2)NC(=O)[C@H](C)NC1=O)[C@@H](C)O (single isomer, unassigned)", "assay result": "7.00 to 8.00"}
{"compound": "CCCC[C@H](NC(=O)[C@H](Cc1c[nH]c2ccccc12)NC(=O)[C@H](C)NC(=O)[C@]1(C)CCCC=CCCCCCC[C@@](C)(NC(=O)[C@H](Cc2ccccc2)NC(=O)[C@@H](NC(=O)[C@H](CCC(=O)O)NC(C)=O)[C@@H](C)O)C(=O)N[C@@H](CCC(=O)O)C(=O)N[C@@H](Cc2ccc(O)cc2)C(=O)N[C@@H](Cc2c[nH]c3ccccc23)C(=O)N[C@@H](C)C(=O)N[C@@H](CCC(N)=O)C(=O)N[C@@H](CC2CCC2)C(=O)N1)C(=O)N[C@H](C)C(N)=O [compound 272] (Ac-ETF[R8]EYWAQ[Cba][S5]AW[Nle][dA]-NH2; staple 4-11)", "assay result": "> 8.00"}
{"compound": "CC(C)C[C@H](NC(=O)CN(C)C)C(=O)N[C@H](C(=O)N[C@@H](Cc1ccccc1)C(=O)N[C@]1(C)CCCCCCC=CCCC[C@@](C)(C(=O)N[C@@H](CO)C(=O)N[C@@H](C)C(=O)N[C@@H](C)C(N)=O)NC(=O)[C@H](CC2CCC2)NC(=O)[C@H](CCC(N)=O)NC(=O)[C@H](C)NC(=O)[C@H](Cc2c[nH]c3ccccc23)NC(=O)[C@H](Cc2ccc(O)cc2)NC(=O)[C@H](CCC(=O)O)NC1=O)[C@@H](C)O", "assay result": "> 8.00"}

Data origin: patent US8927500B2
